- Target Entity: βCat-BCL9 (beta-Catenin/BCL9-BCL9L interaction) (Homo sapiens, UniProt P35222)
- Sequence (P35222 whole entry): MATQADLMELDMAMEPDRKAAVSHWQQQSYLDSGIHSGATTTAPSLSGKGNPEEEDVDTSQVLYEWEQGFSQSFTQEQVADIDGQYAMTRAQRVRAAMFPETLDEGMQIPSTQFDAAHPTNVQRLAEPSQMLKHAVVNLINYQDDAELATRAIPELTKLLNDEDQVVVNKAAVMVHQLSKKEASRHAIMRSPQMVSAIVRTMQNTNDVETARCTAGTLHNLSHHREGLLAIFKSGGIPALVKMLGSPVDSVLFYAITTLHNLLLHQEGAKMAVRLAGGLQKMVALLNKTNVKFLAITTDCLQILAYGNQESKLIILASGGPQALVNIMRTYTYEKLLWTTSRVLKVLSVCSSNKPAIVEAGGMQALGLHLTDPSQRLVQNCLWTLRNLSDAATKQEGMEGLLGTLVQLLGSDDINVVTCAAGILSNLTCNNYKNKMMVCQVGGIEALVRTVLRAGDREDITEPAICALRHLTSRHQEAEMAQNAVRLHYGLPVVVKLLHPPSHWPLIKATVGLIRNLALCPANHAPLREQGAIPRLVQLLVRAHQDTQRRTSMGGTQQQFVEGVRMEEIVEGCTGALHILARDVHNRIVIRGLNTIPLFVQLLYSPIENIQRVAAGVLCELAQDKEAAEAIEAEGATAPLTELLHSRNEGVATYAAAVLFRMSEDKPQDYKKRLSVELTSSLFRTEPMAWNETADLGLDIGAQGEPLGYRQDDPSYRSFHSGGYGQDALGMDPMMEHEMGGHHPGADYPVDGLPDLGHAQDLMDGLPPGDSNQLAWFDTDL
- Test Protocol: ELISA based protein-protein interaction assay, βCat-BCL9
- Measurement Setup: Example 1
pIC50: −log10 of the molar value.
pIC50 by entry:
Readout: pIC50

[
  {
    "Compound": "O=C(NCCc1cccc(Cl)c1)c1ccc(C(=O)NCCc2cccc(Cl)c2)nc1",
    "Readout": "pIC50",
    "Observed Value": "< 4.70"
  },
  {
    "Compound": "COc1ccc(Cl)cc1NC(=O)c1ccc(C(=O)Nc2cc(Cl)ccc2OC)nc1",
    "Readout": "pIC50",
    "Observed Value": "< 4.00"
  },
  {
    "Compound": "N#Cc1cccc(NC(=O)c2ccc(C(=O)Nc3cccc(C#N)c3)cc2)c1",
    "Readout": "pIC50",
    "Observed Value": "< 4.30"
  },
  {
    "Compound": "O=C(Nc1ccc(F)c(F)c1)c1ccc(C(=O)Nc2ccc(F)c(F)c2)nc1",
    "Readout": "pIC50",
    "Observed Value": "< 4.30"
  },
  {
    "Compound": "O=C(NCc1ccco1)c1ccc(C(=O)NCc2ccco2)nc1",
    "Readout": "pIC50",
    "Observed Value": "< 4.30"
  },
  {
    "Compound": "COc1ccc(CCNC(=O)c2cnc(C(=O)NCCc3ccc(OC)c(OC)c3)cn2)cc1OC",
    "Readout": "pIC50",
    "Observed Value": "< 5.00"
  },
  {
    "Compound": "CC(=O)Nc1cccc(NC(=O)c2ccc(C(=O)Nc3cccc(NC(C)=O)c3)nc2)c1",
    "Readout": "pIC50",
    "Observed Value": "< 4.00"
  },
  {
    "Compound": "O=C(Nc1ccc(-c2cnc(-c3ccc(NC(=O)c4ccc(Br)cc4)cc3)nc2)cc1)c1ccc(Br)cc1",
    "Readout": "pIC50",
    "Observed Value": "< 4.00"
  },
  {
    "Compound": "O=C(O)c1cccc(NC(=O)c2ccc(C(=O)Nc3cccc(C(=O)O)c3)cc2)c1",
    "Readout": "pIC50",
    "Observed Value": "< 4.00"
  },
  {
    "Compound": "O=C(Nc1cccnc1O)c1ccc(C(=O)Nc2cccnc2O)nc1",
    "Readout": "pIC50",
    "Observed Value": "< 4.00"
  },
  {
    "Compound": "N#Cc1ccccc1NC(=O)c1ccc(C(=O)Nc2ccccc2C#N)cc1",
    "Readout": "pIC50",
    "Observed Value": "< 5.00"
  },
  {
    "Compound": "NC(=O)c1ccc(NC(=O)c2ccc(C(=O)Nc3ccc(C(N)=O)cc3)cc2)cc1",
    "Readout": "pIC50",
    "Observed Value": "< 5.00"
  },
  {
    "Compound": "O=C(c1ccc(C(=O)N2CCC(Cc3ccccc3)CC2)nc1)N1CCC(Cc2ccccc2)CC1",
    "Readout": "pIC50",
    "Observed Value": "< 4.60"
  },
  {
    "Compound": "CC(C)(C)C1CCc2c(sc(NC(=O)c3ccc(C(=O)Nc4sc5c(c4C#N)CCC(C(C)(C)C)C5)nc3)c2C#N)C1 (centres unmarked)",
    "Readout": "pIC50",
    "Observed Value": "< 4.00"
  },
  {
    "Compound": "COc1cccc(CCNC(=O)c2ccc(C(=O)NCCc3cccc(OC)c3OC)nc2)c1OC",
    "Readout": "pIC50",
    "Observed Value": "< 4.00"
  },
  {
    "Compound": "COc1cccc(NC(=O)c2ccc(C(=O)Nc3cccc(OC)c3)nc2)c1",
    "Readout": "pIC50",
    "Observed Value": "< 4.00"
  },
  {
    "Compound": "O=C(Nc1cccnc1)c1ccc(C(=O)Nc2cccnc2)nc1",
    "Readout": "pIC50",
    "Observed Value": 4.54
  }
]
